Here, molecules appear alongside IC50 reported for UniProt P06870 in the literature.
Assay readout: IC50 (µM)

# Molecule, Value measured
data = [
    ("CC(C)N(CC(=O)N[C@@H](CC1CCCCC1)C(=O)NCc1ccc(N)nc1)C(C)C", 0.0269),
    ("CN1CCC[C@H]1C(=O)N[C@@H](Cc1ccc(F)c(F)c1)C(=O)NCc1ccc(N)nc1", 0.0161),
    ("CNCC(=O)N[C@@H](Cc1ccc(Cl)c(Cl)c1)C(=O)NCc1ccc(N)nc1", 0.0422),
    ("CCC(C)[C@H](C(=O)N[C@@H](Cc1ccc(Cl)c(Cl)c1)C(=O)NCc1ccc(N)nc1)N(C)C(C)C (some centres unmarked)", 0.0633),
    ("CCC(C)[C@@H](NC)C(=O)N[C@@H](Cc1cc(F)cc(F)c1)C(=O)NCc1ccc(N)nc1 (some centres unmarked)", 0.0042),
    ("NCc1ccc(CNc2nccc3c2ccn3Cc2ccc(Cn3ccccc3=O)cc2)cc1", 29.9),
]

I: O=c1ccccn1Cc1ccc(Cn2ccc3c(NCc4cnc5[nH]ccc5c4)nccc32)cc1
II: CN1CCC[C@@H]1C(=O)N[C@@H](Cc1cc(F)c(F)cc1F)C(=O)NCc1ccc(N)nc1
stdin: Between the two listed entries I and II , which has its IC50 at the higher number? // caller expects the label of the chosen entry
stdout: I

A: COc1ccc2[nH]c(C(=O)N[C@@H](Cc3cccc4ccccc34)C(=O)NCc3ccc(N)nc3C)cc2c1
B: Nc1ccc(CNC(=O)[C@H](Cc2csc3ccccc23)NC(=O)[C@H]2CCCCN2)cn1
stdin: I would appreciate it if you could say which entry, A or B , has the lower IC50 value. // caller expects the label of the chosen entry
stdout: B

I: CCOC(=O)C1CCN(c2ccc(Cc3cncc(C(=O)NCc4ccc5c(N)nccc5c4)c3)cn2)C1 (centres unmarked)
II: COC(=O)CN1CCC[C@@H]1C(=O)N[C@@H](Cc1ccc(F)c(F)c1)C(=O)NCc1ccc(N)nc1
III: CCC(C)[C@@H](N)C(=O)N[C@@H](Cc1ccccc1Cl)C(=O)NCc1ccc(N)nc1 (some centres unmarked)
stdin: List these items ordered by IC50, big to small. // rank by listing labels in the order requested
stdout: I, III, II
(I: 3.62 µM, III: 0.0278 µM, II: 0.0135 µM)

1: CN[C@@H](C)C(=O)N[C@@H](C(=O)NCc1ccc(N)nc1)C(C1CCCCC1)C1CCCCC1
2: Nc1ccc(CNC(=O)[C@H](Cc2ccc(F)c(F)c2)NC(=O)[C@H]2CCCN2CC(=O)O)cn1
stdin: I would appreciate it if you could say which entry, 1 or 2 , has the lower IC50 value. // caller expects the label of the chosen entry
stdout: 2
(2: 0.0173 µM, 1: 0.0353 µM)

###

Here, compounds appear alongside IC50 reported for UniProtKB P06870 in the literature.
Assay readout: IC50 (µM)

# Compound, Target under test, IC50 (µM)
rows = [
    ("CC(C)[C@H](C(=O)N[C@@H](Cc1ccc(Cl)c(Cl)c1)C(=O)NCc1ccc(N)nc1)N(C)C", "UniProtKB P06870", 0.00074),
    ("CN1CCC[C@@H]1C(=O)N(C)[C@@H](Cc1ccccc1)C(=O)NCc1ccc(N)nc1", "UniProtKB P06870", 0.0511),
    ("Cc1ccc2cc(Cc3cnc(O)c(C(=O)NCc4ccc5c(N)nccc5c4)c3)ccc2n1", "UniProtKB P06870", 2.49),
    ("Cc1cc(C(=O)NCc2ccc(CN)cc2Cl)c(C)n1Cc1ccccc1", "UniProtKB P06870", 5.48),
    ("CCC(C)[C@@H](NC)C(=O)N[C@@H](Cc1ccc(Cl)c(Cl)c1)C(=O)NCc1ccc(N)nc1 (some centres unmarked)", "UniProtKB P06870", 0.00022),
]

1: Nc1ccc(CNC(=O)[C@H](Cc2ccccc2Cl)NC(=O)[C@H]2CCCCN2)cn1
2: CCC(C)[C@H](N)C(=O)N[C@@H](C(=O)NCc1ccc(N)nc1)C(C1CCCCC1)C1CCCCC1 (some centres unmarked)
stdin: Between the two listed entries 1 and 2 , which has its IC50 at the higher number? // caller expects the label of the chosen entry
stdout: 1
(1: 0.0218 µM, 2: 0.0049 µM)

###

Here, compounds appear alongside pIC50 reported for Human KLK1 (Homo sapiens (Human)) in the literature.
pIC50: −log10 of the molar value.
Assay readout: pIC50

The examples below pair each entry with its known result.
# Smiles, Value measured
records = [
    ("COc1cc(Cn2cc(C(=O)NCc3ccc4c(N)nccc4c3)c(C3CC3)n2)cc(N2CCCC2)n1", 5.02),
    ("Cc1cc(C(=O)NCc2ccc(CN)cc2)c(C)n1Cc1cccs1", 5.62),
    ("Nc1ccc(CNC(=O)[C@H](Cc2ccc(C(F)(F)F)cc2)NC(=O)CN2CCCCC2)cn1", 6.89),
]

a: Cc1cc(C)c(C(=O)N[C@@H](Cc2cccc(Cl)c2)C(=O)NCc2ccc(N)nc2C)[nH]1
b: Nc1ccc(CNC(=O)[C@H](Cc2ccc(F)c(F)c2)NC(=O)[C@H](N)Cc2ccccc2)cn1
c: Cc1cc(C)c(C(=O)N[C@@H](Cc2ccc(-c3ccccc3)cc2)C(=O)NCc2ccc(N)nc2)[nH]1
stdin: List these items ordered by pIC50, big to small. // rank by listing labels in the order requested
stdout: a, b, c

###

Here, compounds appear alongside IC50 reported for Human KLK1 (Homo sapiens (Human), UniProt P06870) in the literature.
Assay readout: IC50 (µM)

The examples below pair each entry with its known result.
# Compound, IC50 [µM]
measured = [
    ("CC(C)CN(C)CC(=O)N[C@@H](Cc1ccc(Cl)c(Cl)c1)C(=O)NCc1ccc(N)nc1", 0.216),
    ("CC(C1CCCCC1)[C@@H](NC(=O)[C@H](C)N(C)C(C)C)C(=O)NCc1ccc(N)nc1 (some centres unmarked)", 0.0036),
]

P: CC(C(=O)N[C@@H](Cc1ccc(F)c(F)c1)C(=O)NCc1ccc(N)nc1)N1CCCCC1 (some centres unmarked)
Q: CNc1ncc(C(=O)NCc2ccc3c(N)nccc3c2)cc1Cc1ccc2nc(C)ccc2c1
R: Cc1cnn(Cc2ccc(Cn3nc(C)c(C(=O)NCc4ccc5c(N)nccc5c4)c3C)cc2)c1
stdin: List these items ordered by IC50, big to small. // rank by listing labels in the order requested
stdout: R, Q, P
(R: 18.2 µM, Q: 5.99 µM, P: 0.0116 µM)

###

pIC50: −log10 of the molar value.
Here, compounds appear alongside pIC50 reported for UniProt:P06870 in the literature.

The examples below pair each entry with its known result.
# Compound, Assay readout, Value measured
data = [
    ("COCc1nn(Cc2ccc3c(c2)CCN(C(C)C)C3)cc1C(=O)NCc1c(-n2cnc(C(F)(F)F)n2)ccc(OC)c1F", "pIC50", "< 4.40"),
    ("COc1ccc(C[C@H](NC(=O)[C@H]2CCCN2C)C(=O)NCc2ccc(N)nc2)cc1", "pIC50", 7.07),
    ("CCOc1ccc(Cn2c(C)cc(C(=O)NCc3ccc(CN)cc3)c2C)cc1", "pIC50", "< 5.00"),
]

stdin: I would be grateful if you could share the reported pIC50 for `Cc1cc(C(=O)NCc2ccc3c(N)nccc3c2)c(C)n1Cc1csc(-c2ccccc2)n1` .
stdout: < 5.00

stdin: I would be grateful if you could share the reported pIC50 for CCC(C)[C@@H](NC)C(=O)N[C@@H](Cc1ccc(Cl)cc1)C(=O)NCc1ccc(N)nc1 (stereo partly shown) .
stdout: 8.92

stdin: I would be grateful if you could share the reported pIC50 for `CCN(C)[C@@H](C)C(=O)N[C@@H](Cc1cccc(C)c1)C(=O)NCc1ccc(N)nc1` .
stdout: 8.10

###

Here, compounds appear alongside IC50 reported for Human KLK1 (Homo sapiens (Human), UniProt P06870) in the literature.
Assay readout: IC50 (nM)

The examples below pair each entry with its known result.
# Compound, Assay readout, Units, Value measured
measured = [
    ("Nc1ccc(CNC(=O)[C@H](Cc2cccc(Cl)c2)NC(=O)c2cc3ccccc3[nH]2)cn1", "IC50", "nM", 8.7),
    ("Cc1cc[nH]c1C(=O)N[C@@H](Cc1ccc(C(F)(F)F)cc1)C(=O)NCc1ccc(N)nc1", "IC50", "nM", 10.3),
    ("CN1Cc2ccccc2C[C@@H]1C(=O)N[C@@H](Cc1ccc(F)c(F)c1)C(=O)NCc1ccc(N)nc1", "IC50", "nM", 36.8),
]

I: NCc1ccc(CNc2nccc3c2ccn3CCCCc2ccccc2)cc1
II: CC(C)N(C)[C@H](C)C(=O)N[C@@H](Cc1ccc(F)c(F)c1)C(=O)NCc1ccc(N)nc1
stdin: I would appreciate it if you could say which entry, I or II , has the lower IC50 value. // caller expects the label of the chosen entry
stdout: II
(II: 2 nM, I: 38600 nM)

P: Nc1nccc2cc(CNC(=O)c3cnn(Cc4ccc(Oc5ccccn5)cc4)c3)ccc12
Q: CCC(C)[C@H](NC)C(=O)N[C@@H](Cc1ccc(F)c(F)c1)C(=O)NCc1ccc(N)nc1 (stereo partly shown)
stdin: I would appreciate it if you could say which entry, P or Q , has the lower IC50 value. // caller expects the label of the chosen entry
stdout: Q
